Notes on MIC obtained with "Atypical mycobacteria" Runyon Grouping 1.
reported_metric: MIC (µg/mL)

INSERT INTO results (compound, u, numeric_value) VALUES
  ('CC(NC(=O)c1cc([N+](=O)[O-])cc([N+](=O)[O-])c1)c1ccccn1 (stereo not shown)', 'µg/mL', 3.1),
  ('O=C(NCC1CCC=CO1)c1cc([N+](=O)[O-])cc([N+](=O)[O-])c1 (stereo not shown)', 'µg/mL', 1.6),
  ('O=C(NCc1ccccn1)c1cc([N+](=O)[O-])cc([N+](=O)[O-])c1', 'µg/mL', 6.2),
  ('Cc1cccc(CNC(=O)c2cc([N+](=O)[O-])cc([N+](=O)[O-])c2)n1', 'µg/mL', 6.2),
  ('O=C(NCc1cnc2ccccc2c1)c1cc([N+](=O)[O-])cc([N+](=O)[O-])c1', 'µg/mL', 3.1),
  ('O=C(NCC1CCCO1)c1cc([N+](=O)[O-])cc([N+](=O)[O-])c1 (stereo not shown)', 'µg/mL', 6.2),
  ('O=C(NCc1ccc2ccccc2n1)c1cc([N+](=O)[O-])cc([N+](=O)[O-])c1', 'µg/mL', 1.6);
